Condition label: in isobutanol, 308.1 K
Measured attribute: solubility (mole fraction)
Simply state the number, no unit and no words.

Task: Form field: reported solubility (mole fraction) of OC[C@@H](O)CN1CCN(c2ccccc2)CC1
Output: 0.00311

###

Condition label: in ethyl acetate, 313.1 K
Measured attribute: solubility (mole fraction)
Returns: the value as a bare number; no unit string appended.

Task: May I ask what solubility (mole fraction) has been recorded for OC[C@@H](O)CN1CCN(c2ccccc2)CC1 ?
Output: 0.00172

###

Condition label: in isopropyl acetate, 308.1 K
Measured attribute: solubility (mole fraction)
Give a plain numeric answer without units written out.

Task: Give its solubility (mole fraction) value. Item: OC[C@@H](O)CN1CCN(c2ccccc2)CC1
Output: 0.00102

###

Condition label: in ethyl acetate, 298.1 K
Measured attribute: solubility (mole fraction)
Give only the figure.

Task: I'd like to know its solubility (mole fraction). The compound in question is OC[C@@H](O)CN1CCN(c2ccccc2)CC1
Output: 0.000809

###

Condition label: in n-butanol, 298.1 K
Measured attribute: solubility (mole fraction)
Keep it simple and answer with nothing but the number.

Task: Request the reported solubility (mole fraction) associated with OC[C@@H](O)CN1CCN(c2ccccc2)CC1
Output: 0.00131

###

Condition label: in isobutanol, 283.1 K
Measured attribute: solubility (mole fraction)
// no unit, no text: just the number

Task: Look up solubility (mole fraction): OC[C@@H](O)CN1CCN(c2ccccc2)CC1
Output: 0.000871

###

Condition label: in isopentanol, 313.1 K
Measured attribute: solubility (mole fraction)
Just the number, please, no unit attached.

Task: Suppose we examine the compound OC[C@@H](O)CN1CCN(c2ccccc2)CC1 ; what solubility (mole fraction) value has been reported?
Output: 0.00358

###

Condition label: in n-hexanol, 293.1 K
Measured attribute: solubility (mole fraction)
Keep the answer to the number alone.

Task: Requested field: solubility (mole fraction). Item: OC[C@@H](O)CN1CCN(c2ccccc2)CC1
Output: 0.00139

###

Condition label: in isopropanol, 303.1 K
Measured attribute: solubility (mole fraction)
Lab note: jot down the number only; don't add units.

Task: Fill in the blank: the reported solubility (mole fraction) of OC[C@@H](O)CN1CCN(c2ccccc2)CC1 is ____.
Output: 0.000371

###

Condition label: in n-propanol, 303.1 K
Measured attribute: solubility (mole fraction)
Form rule: numeric answer, no unit written next to it.

Task: Please give the measured solubility (mole fraction) for this molecule: OC[C@@H](O)CN1CCN(c2ccccc2)CC1
Output: 0.00207

###

Condition label: in n-butyl acetate, 308.1 K
Measured attribute: solubility (mole fraction)
Number only, no unit.

Task: Give the measured solubility (mole fraction) of OC[C@@H](O)CN1CCN(c2ccccc2)CC1 .
Output: 0.00122

###

Condition label: in ethyl acetate, 283.1 K
Measured attribute: solubility (mole fraction)
Lab note: jot down the number only; don't add units.

Task: GET /values?readout=solubility (mole fraction)&item= OC[C@@H](O)CN1CCN(c2ccccc2)CC1
Output: 0.000375

###

Condition label: in n-butyl acetate, 323.1 K
Measured attribute: solubility (mole fraction)
Lab note: write the figure by itself, no unit.

Task: Data request, read-out solubility (mole fraction), for OC[C@@H](O)CN1CCN(c2ccccc2)CC1
Output: 0.00266
